experiment: Aqueous solubility in PBS; type: physicochemical; conditions: buffer
Here the recorded solubility is given for each entry.
endpointLabel: solubility (µM)

>  <smilesRepresentation>
COc1ccc2c(c1)CCc1c(-c3ccccc3)c3n(c1-2)[B-](F)(F)[N+]1=C(c2ccc(OCC(=O)N[C@@H](CCC(=O)O)C(=O)O)cc2)C(I)=C(c2ccccc2)C1=N3

>  <observedResult>
110

$$$$
>  <smilesRepresentation>
COc1ccc(C2=[N+]3C(=Nc4c(-c5ccccc5)c5c(n4[B-]3(F)F)-c3ccc(OCC(=O)N[C@@H](CC(=O)O)C(=O)O)cc3CC5)C(c3ccccc3)=C2I)cc1

>  <observedResult>
165

$$$$
>  <smilesRepresentation>
COc1ccc2c(c1)CCc1c(-c3ccccc3)c3n(c1-2)[B-](F)(F)[N+]1=C(c2ccc(OCC(=O)N[C@@H](CC(=O)O)C(=O)O)cc2)C(I)=C(c2ccccc2)C1=N3

>  <observedResult>
115

$$$$
